# credit: the supplement of paper PMC10567573

B1: C8orf76 (parent)
chain: LYLQLAICSSLQNLEKTIFCLQKL

Variants of: B1
Experiment: protein stability index of a GFP-peptide fusion (GPS, HEK-293T) (PSI 1-6); higher = more stable;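 also: lentivirally expressed fusions sorted by FACS into six bins by GFP to DsRed ratio, PSI derived from sequencing read proportions per bin multiplied by bin number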
Conditions: c terminus: a fixed tail appended
Quick reference: protein stability index of the listed items.
reportedMetric: protein stability index

[[record]]
variantdescriptor = "L14I"
reportedmetric = "protein stability index"
measurednumber = 2.96

[[record]]
variantdescriptor = "F19T"
reportedmetric = "protein stability index"
measurednumber = 1.71

[[record]]
variantdescriptor = "A6V"
reportedmetric = "protein stability index"
measurednumber = 1.62

[[record]]
variantdescriptor = "S10L"
reportedmetric = "protein stability index"
measurednumber = 2.99

[[record]]
variantdescriptor = "L14M"
reportedmetric = "protein stability index"
measurednumber = 2.22

